Molecular target: T1, human BCMA on BCMA expressing cell lines (human, UniProt Q02223 1-184)
T1 sequence: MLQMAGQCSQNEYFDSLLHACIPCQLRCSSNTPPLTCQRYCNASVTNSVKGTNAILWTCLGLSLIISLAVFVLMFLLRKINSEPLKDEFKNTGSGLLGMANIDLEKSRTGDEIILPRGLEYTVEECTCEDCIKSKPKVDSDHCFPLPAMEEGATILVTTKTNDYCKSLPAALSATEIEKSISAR
Test: cell-based or functional assay
Rule: TDCC EC50 (EJM cells) below 20 pM gives Y, anything at or above gives N.

{"binder": "BCMA targeting trispecific protein 01B05 (other, not shown: large carriers; small tags and cut ends, trispecific) VHH: EVQLVESGGGLVQPGRSLTLSCAASTNITSISPMGWYRQAPGKQRELVAAIHGFETLYADSVKGRFTISRDNAKNSIYLQMNSLRPEDTALYYCNKVPWGDYHPGNVYWGQGTQVTVSS", "cat": "Y"}
{"binder": "BCMA targeting trispecific protein 01A08 (other, not shown: large carriers; small tags and cut ends, trispecific) VHH: EVQLVESGGGLVQPGRSLTLSCAASTNIFSSSPMGWYRQAPGKQRELVAAIHGESTLYADSVKGRFTISRDNAKNSIYLQMNSLRPEDTALYYCNKVPWGDYHPRKVYWGQGTQVTVSS", "cat": "Y"}
{"binder": "BCMA targeting trispecific protein 01A01 (other, not shown: large carriers; small tags and cut ends, trispecific) VHH: EVQLVESGGGLVQPGRSLTLSCAASTDIFSISPMGWYRQAPGKQRELVAAIHGGSTLYADSVKGRFTISRDNAKNSIYLQMNSLRPEDTALYYCNKVPWGDYHPRNVAWGQGTQVTVSS", "cat": "N"}
{"binder": "BCMA targeting trispecific protein 02C06 (other, not shown: large carriers; small tags and cut ends, trispecific) VHH: EVQLVESGGGLVQPGRSLTLSCAASTNIFSTSPMGWYRQAPGKQRELVAAIHGTSTLYADSVKGRFTISRDNAKNSIYLQMNSLRPEDTALYYCNKVPWGDYHPGNVYWGQGTQVTVSS", "cat": "Y"}

Prompt: Quick check: does BCMA targeting trispecific protein 01B03 (other, not shown: large carriers; small tags and cut ends, trispecific) VHH: EVQLVESGGGLVQPGRSLTLSCAASTNIFSKSPMGWYRQAPGKQRELVAAIHGKSTLYADSVKGRFTISRDNAKNSIYLQMNSLRPEDTALYYCNKVPWGDYHPRNVVWGQGTQVTVSS have TDCC EC50 (EJM cells) under 20 pM?
Response: N

Prompt: Quick check: does BCMA targeting trispecific protein 02F07 (other, trispecific; not shown: the C-terminal His6 follows those missing domains and is left out) VHH: EVQLVESGGGLVQPGRSLTLSCAASTNIESISPMGWYRQAPGKQRELVAAIHGFSTLYADSVKGRFTISRDNAKNSIYLQMNSLRPEDTALYYCNKVPWGDYHPGNVYWGQGTQVTVSS have TDCC EC50 (EJM cells) under 20 pM?
Response: Y

Prompt: Quick check: does BCMA targeting trispecific protein 02G07 (other, not shown: large carriers; small tags and cut ends, trispecific) VHH: EVQLVESGGGLVQPGRSLTLSCAASTNIFSITPMGWYRQAPGKQRELVAAIHGESTLYADSVKGRFTISRDNAKNSIYLQMNSLRPEDTALYYCNKVPWGDYHPRDVYWGQGTQVTVSS have TDCC EC50 (EJM cells) under 20 pM?
Response: N

Prompt: Quick check: does BCMA targeting trispecific protein 01B06 (other, trispecific; not shown: the C-terminal 6xHis tag follows those missing domains and is left out) VHH: EVQLVESGGGLVQPGRSLTLSCAASTNIFSISPMGWYRQAPGKQRELVAAIHGDSTLYADSVKGRFTISRDNAKNSIYLQMNSLRPEDTALYYCNKVPWGEYHPRNVYWGQGTQVTVSS have TDCC EC50 (EJM cells) under 20 pM?
Response: Y
